# Tested on: HL-60(TB) leukemia
# assay-remarks: NCI-60 one-dose screen, 48 h
# assay-setup: 10 µM unless noted
The panel holds about 83,000 compounds, 20% with a hit somewhere; the sample as a whole holds those more often. Active and inactive are the calls of the source. The calls were made as follows: active = growth percent below 10; inactive = the rest.
Parameter call: string, one of active, inactive

Please review the entries below; each comes with its answer.
>  <molecule>
CCCCCCCCCCCCCCCCCC1=NCCN1CS(=O)(=O)O

>  <cat>
inactive

$$$$
>  <molecule>
CCC(CC)(c1ccccc1)C(OC(N)=O)c1ccccc1 (stereo not given)

>  <cat>
inactive

$$$$
>  <molecule>
S=c1[nH]nc(Cn2c3ccccc3c3ccncc32)o1

>  <cat>
inactive

$$$$
>  <molecule>
CN1CCN(Cc2ccc(C(=O)Nc3cncc(C#Cc4cnc5cccnn45)c3)cc2C(F)(F)F)CC1

>  <cat>
active

$$$$
>  <molecule>
N[C@@H](Cc1ccccc1)[C@@H](O)C(=O)NCc1ccc(F)cc1

>  <cat>
inactive

$$$$

Exercise: Dear all, I need the recorded test outcome for O=C(Nc1cccc(-n2ccc3c(NC(=O)c4ccccc4)ncnc32)c1)Nc1ccc(Cl)c(C(F)(F)F)c1 , thank you.
Solution: active

Exercise: Dear all, I need the recorded test outcome for O=C(CCc1nnc(-c2c(Cl)cccc2Cl)o1)c1nc2ccccc2[nH]1 , thank you.
Solution: active

Exercise: Dear all, I need the recorded test outcome for Cc1nc(-c2ccccc2)cc2c(O)c(C(=O)N/N=C/Cc3ccccc3)[nH]c(=O)c12 , thank you.
Solution: inactive

Exercise: Dear all, I need the recorded test outcome for CC(C)(C)n1cc(-c2ccnc(NCCNS(=O)(=O)c3ccc(Br)cc3)c2)c(-c2cccc(O)c2)n1 , thank you.
Solution: active

Exercise: Dear all, I need the recorded test outcome for O=Cc1ncc(-c2ccc(C(F)(F)F)cc2)c(NC2CCCCCC2)n1 , thank you.
Solution: active

###

# Test system: HL-60(TB) leukemia
# assay-remarks: NCI-60 one-dose screen, 48 h (100 = growth as untreated, 0 = no growth, -100 = all killed)
# assay-setup: 10 µM unless noted
The panel holds about 83,000 compounds, 20% with a hit somewhere; the sample as a whole holds those more often.
experimental-readout: growth (%)
Answer with a number only, understood to be in %.

Completed entries (count: 5):
>  <compound>
COc1ccc(Cn2cc3c(c2-c2ccccc2)CCc2cnoc2-3)cc1N

>  <experimental-system>
HL-60(TB) leukemia

>  <growth (%)>
-19.8

$$$$
>  <compound>
C#C[C@@]1(O)[C@@H](CO)O[C@@H](n2cc(I)c3c(N)ncnc32)[C@@H]1O

>  <experimental-system>
HL-60(TB) leukemia

>  <growth (%)>
-56.6

$$$$
>  <compound>
Nc1ncnc2c1ncn2C1OC(COP(=O)(O)O)C(O)C1O (centres undefined)

>  <experimental-system>
HL-60(TB) leukemia

>  <growth (%)>
102

$$$$
>  <compound>
CCCCCCCC(=O)SCC/C=C/[C@@H]1CC(=O)NCc2cccc(n2)CN(Cc2ccc(Cl)cc2)CC(=O)N[C@@H](C(C)C)C(=O)O1

>  <experimental-system>
HL-60(TB) leukemia

>  <growth (%)>
13

$$$$
>  <compound>
CC(=O)c1cc(C(=O)c2ccc3c(c2)Sc2ccccc2N3)c2c(C)cccn12

>  <experimental-system>
HL-60(TB) leukemia

>  <growth (%)>
-4.53

$$$$

Exercise: Look up HL-60(TB) leukemia data: growth of COC(=O)CNC(=O)[C@]12CCC(C)(C)C[C@H]1C1=CC[C@@H]3[C@@]4(C)Cc5c([nH]c6ccccc56)C(C)(C)[C@@H]4CC[C@@]3(C)[C@]1(C)CC2 , then report it.
Solution: 76.9

Exercise: Look up HL-60(TB) leukemia data: growth of COC(=O)c1[nH]c(=O)c(C#N)c(C(=O)OC)c1C(=O)c1ccccc1 , then report it.
Solution: 94.8

Exercise: Look up HL-60(TB) leukemia data: growth of CCc1nc2ccc(Cc3ccc(C(=O)NO)cc3)cc2c(=O)n1CCc1ccccc1 , then report it.
Solution: -20.3

Exercise: Look up HL-60(TB) leukemia data: growth of N#Cc1cncc(-c2ccc3ncnc(Nc4cccc(Cl)c4)c3c2)c1 , then report it.
Solution: 97.2

Numbers sourced from PubChem BioAssay (NCI).
